These data points were gathered from ChEMBL document CHEMBL2202974.

# measurement-notes: Metabolic stability in monkey blood for 0.5 hrs
# Format: ADME, tissue-based, Macaca mulatta
# measurement-context: rhesus monkey, read-out: Stability
property-measured: remaining at 0.5 h (%)
All answers are understood in %, so give the number only.

Kindly indicate its recorded remaining at 0.5 h. Item: "[11CH3]NC(=O)[C@@H](Cc1ccccc1F)CN1CCC2(CC1)OCCc1cc(F)sc12"
100
